# glycan array binding signal (z-score) values compiled below
molecular target: Neu5Ac(a2-3)Gal(b1-3)GalNAc(b1-4)[Neu5Ac(a2-8)Neu5Ac(a2-3)]Gal(b1-4)Glc; assay: glycan array binding signal (z-score within array); higher = stronger binding; conditions: glycan notation: IUPAC condensed, linker removed
Only a selection was taken, and the strongest signals are over-represented in it overall.
measuredQuantity: glycan array binding signal (z-score)

{"columns": ["binder", "measuredQuantity", "reportedMeasurement"],
 "data": [
  ["MPA (Maclura pomifera), P18674 (protein) GVTFDDGAYTGIREINFEYNSETAIGGLRVTYDLNGMPFVAEDHKSFITGFKPVKISLEFPSEYIVEVSGYVGKVEGYTVIRSLTFKTNKQTYGPYGVTNGTPFSLPIENGLIVGFKGSIGYWLDYFSIYLSL", "glycan array binding signal (z-score)", -0.179],
  ["LBL-152 (Laetiporus bicolor), B0D650 (protein) MSNEYNPPLGIAFRLCGLASDRVLFSRVSPSPEVFHHPKSEVYPDQWFVAIPGSGQNAGCYAIKSKNTGKVLFSRMSPDPRVGHIDGDGKYPDNWFKFEAGSGKYAGYFRLRAVASDTVLVSRTSTGTDTQVINYPATSAKYDDQYFTILFDHHHHHH", "glycan array binding signal (z-score)", -0.145],
  ["FGFR2-Fc (protein) MVNVTDAISSGDDEDDTDGAEDFVSENSNNKRAPYWTNTEKMEKRLHAVPAANTVKFRCPAGGNPMPTMRWLKNGKEFKQEHRIGGYKVRNQHWSLIMESVVPSDKGNYTCVVENEYGSINHTYHLDVVERSPHRPILQAGLPANASTVVGGDVEFVCKVYSDAQPHIQWIKHVEKNGSKYGPDGLPYLKVLKHSGINSSNAEVLALFNVTEADAGEYICKVSNYIGQANQSAWLTVLPKQQAPGREKEITASPDYLETRPLEQKLISEEDLAANDILDYKDDDDKV", "glycan array binding signal (z-score)", -0.349]
]}
